- Test system: ME-180 cells
- assayMethodText: Cancer cell proliferation assay, ME-180
- Type: cell-based
- conditionNotes: Homo sapiens, ME-180; Table 1; 72 h; read-out: 72-hr Viability ME-180 IC50
testReadout: pIC50
# pIC50: negative log10 of molar concentration; output just the value

These recorded examples may help you get a feel for the data.
INSERT INTO results (molecule, measuredon, experimentalvalue) VALUES
  ('CC[C@@]1(O)C(=O)OCc2c1cc1n(c2=O)Cc2cc3c(CN(C)C)c(O)ccc3nc2-1 [Topotecan]', 'ME-180 cells', 7.00),
  ('CC(=O)Nc1cccc(-n2c(=O)n(C3CC3)c(=O)c3c(Nc4ccc(I)cc4F)n(C)c(=O)c(C)c32)c1 [Trametinib]', 'ME-180 cells', 7.22);

For Cn1cnc2c(F)c(Nc3ccc(Br)cc3Cl)c(C(=O)NOCCO)cc21 [Selumetinib] , what is its reported pIC50? 6.57

What does the record list as pIC50 for O=C(Nc1ccc([N+](=O)[O-])cc1Cl)c1cc(Cl)ccc1O [Niclosamide] ? 5.69

What value of measured pIC50 is listed for CCN(CC)CCNC(=O)c1c(C)[nH]c(/C=C2\C(=O)Nc3ccc(F)cc32)c1C [Sunitinib] ? 4.72

Given CC[C@@]1(O)C(=O)OCc2c1cc1n(c2=O)Cc2cc3ccccc3nc2-1 [Camptothecin] , state its recorded pIC50. 7.40

###

- System: hypoxia response element-beta-lactamase (HRE–bla)
- assayMethodText: HRE-bla reporter gene assay in ME-180 cells
- Type: cell-based, human
- conditionNotes: Homo sapiens, ME-180; Table S7; confirmatory screen; read-out: HRE–bla confirmatory Efficacy
Classify by measured Emax: Satisfied if it is equal to or exceeds 80%, Not satisfied if it is smaller.

Worked set:
INSERT INTO measurements (compound, measuredon, qualitativelabel) VALUES
  ('O=c1c(O)c(-c2ccc(O)c(O)c2)oc2cc(O)cc(O)c12 [Quercetine]', 'hypoxia response element-beta-lactamase (HRE–bla)', 'Satisfied'),
  ('C[C@H]1O[C@@H](O[C@H]2[C@@H](O)C[C@H](O[C@H]3[C@@H](O)C[C@H](O[C@H]4CC[C@@]5(C)[C@H](CC[C@@H]6[C@@H]5CC[C@]5(C)[C@@H](C7=CC(=O)OC7)CC[C@]65O)C4)O[C@@H]3C)O[C@@H]2C)C[C@H](O)[C@@H]1O [Digitoxin]', 'hypoxia response element-beta-lactamase (HRE–bla)', 'Satisfied'),
  ('C[C@@H]1O[C@@H](O[C@H]2C[C@@H](O)[C@]3(CO)[C@H]4[C@H](O)C[C@]5(C)[C@@H](C6=CC(=O)OC6)CC[C@]5(O)[C@@H]4CC[C@]3(O)C2)[C@H](O)[C@H](O)[C@H]1O [Ouabain]', 'hypoxia response element-beta-lactamase (HRE–bla)', 'Satisfied'),
  ('O=C(Nc1ccc([N+](=O)[O-])cc1Cl)c1cc(Cl)ccc1O [Niclosamide]', 'hypoxia response element-beta-lactamase (HRE–bla)', 'Satisfied'),
  ('CC(=O)Oc1ccc(C2(c3ccc(OC(C)=O)cc3)C(=O)Nc3ccccc32)cc1 [Oxyphenisatin acetate]', 'hypoxia response element-beta-lactamase (HRE–bla)', 'Satisfied'),
  ('CC[C@H]1CN2CCc3cc(OC)c(OC)cc3[C@@H]2C[C@@H]1C[C@H]1NCCc2cc(OC)c(OC)cc21 [Emetine]', 'hypoxia response element-beta-lactamase (HRE–bla)', 'Satisfied'),
  ('Nc1ncn([C@@H]2O[C@H](CO)[C@@H](O)[C@H]2O)c(=O)n1 [5-Azacitidine]', 'hypoxia response element-beta-lactamase (HRE–bla)', 'Satisfied'),
  ('CC(C)(C)c1nc(-c2cccc(NS(=O)(=O)c3c(F)cccc3F)c2F)c(-c2ccnc(N)n2)s1 [Dabrafenib]', 'hypoxia response element-beta-lactamase (HRE–bla)', 'Not satisfied');

// inclusive: Emax at least 80%? input: CC[C@@]1(O)C(=O)OCc2c1cc1n(c2=O)Cc2cc3c(CN(C)C)c(O)ccc3nc2-1 [Topotecan] Satisfied

Hello, I need to know if O=C(Nc1ccc(Cl)cc1)Nc1ccc(Cl)c(C(F)(F)F)c1 [Cloflucarban] has measured Emax not below 80%. Thanks! Satisfied

###

- System: hypoxia response element-beta-lactamase (HRE–bla)
- assayMethodText: HRE-bla reporter gene assay in ME-180 cells
- Assay type: cell-based, human
- conditionNotes: Homo sapiens, ME-180; Table S7; confirmatory screen; read-out: HRE–bla confirmatory Efficacy
Reported Emax values for the following compounds.
Remember to quote the unit after the number.

These recorded examples may help you get a feel for the data.
INSERT INTO assay_data (compound, experimentalvalue) VALUES
  ('Cc1cc(C)c(/C=C2\C(=O)Nc3ccccc32)[nH]1', '111%'),
  ('C#Cc1cccc(Nc2ncnc3cc(OCCOC)c(OCCOC)cc23)c1', '59%'),
  ('COc1cccc2c1C(=O)c1c(O)c3c(c(O)c1C2=O)C[C@@](O)(C(C)=O)C[C@@H]3O[C@H]1C[C@H](N)[C@H](O)[C@H](C)O1', '80%'),
  ('CS(=O)(=O)CCNCc1ccc(-c2ccc3ncnc(Nc4ccc(OCc5cccc(F)c5)c(Cl)c4)c3c2)o1', '78%');

Recorded Emax for CCCCC(CC)CNC(=N)NC(=N)NCCCCCCNC(=N)NC(=N)NCC(CC)CCCC (centres unmarked) , please? 87%

###

- System: hypoxia response element-beta-lactamase (HRE–bla)
- assayMethodText: HRE-bla reporter gene assay in ME-180 cells
- Format: cell-based, human
- conditionNotes: Homo sapiens, ME-180; Table S7; confirmatory screen; read-out: HRE–bla confirmatory Efficacy
Kindly note that classification relies on Emax with these boundaries: low group (below 70%), middle group (70% to below 90%), high group (90% or more)

See these solved cases before continuing.
INSERT INTO assay_data (compound, qualitativelabel) VALUES
  ('CCN(CC)CCNC(=O)c1c(C)[nH]c(/C=C2\C(=O)Nc3ccc(F)cc32)c1C', 'middle group'),
  ('C[C@@H]1O[C@@H](O[C@@H]2C=C3CC[C@@H]4[C@H](CC[C@]5(C)[C@@H](c6ccc(=O)oc6)CC[C@]45O)[C@@]3(C)CC2)[C@H](O)[C@H](O)[C@H]1O', 'high group'),
  ('O=C(NOCC1CC1)c1ccc(F)c(F)c1Nc1ccc(I)cc1Cl', 'middle group');

Note: attention shifts to another entry.
Would you mind sorting COc1c(C)c2c(c(O)c1C/C=C(\C)CCC(=O)OCCN1CCOCC1)C(=O)OC2 [Mycophenolate mofetil] into the appropriate category? low group

###

Below: a set of entries, each annotated with reported Emax.
- Tested on: hypoxia response element-beta-lactamase (HRE–bla)
- assayMethodText: HRE-bla reporter gene assay in ME-180 cells
- Type: cell-based, human
- conditionNotes: Homo sapiens, ME-180; Table S7; confirmatory screen; read-out: HRE–bla confirmatory Efficacy
Please state the figure in %; there is no need to write the unit.

INSERT INTO assay_data (compound, testreadout, experimentalvalue) VALUES
  ('CC(=O)Oc1ccccc1C(=O)Nc1ncc([N+](=O)[O-])s1 [Nitazoxanide]', 'Emax', 88);

// map `Nc1nc2nc[nH]c2c(=S)[nH]1` to recorded Emax (system: hypoxia response element-beta-lactamase (HRE–bla)) 88

// fetch hypoxia response element-beta-lactamase (HRE–bla) Emax for C[C@H]1O[C@@H](O[C@H]2CC[C@@]3(C)[C@H](CC[C@@H]4[C@@H]3C[C@@H](O)[C@]3(C)[C@@H](C5=CC(=O)OC5)CC[C@]43O)C2)C[C@H](O)[C@@H]1O[C@H]1C[C@H](O)[C@H](O[C@H]2C[C@H](O)[C@H](O[C@@H]3O[C@H](CO)[C@@H](O)[C@H](O)[C@H]3O)[C@@H](C)O2)[C@@H](C)O1 [Deslanoside] 102

Field: Emax (hypoxia response element-beta-lactamase (HRE–bla)). Entry: `COC[C@H]1OC(=O)c2coc3c2[C@@]1(C)C1=C(C3=O)[C@@H]2CCC(=O)[C@@]2(C)C[C@H]1OC(C)=O` 91

Look up Emax with hypoxia response element-beta-lactamase (HRE–bla) for this compound: `C=CC(=O)Nc1cc2c(Nc3ccc(F)c(Cl)c3)ncnc2cc1OCCCN1CCOCC1` 37

Request body: readout Emax, system hypoxia response element-beta-lactamase (HRE–bla), query `O=C1c2c(O)ccc(O)c2C(=O)c2c(NCCNCCO)ccc(NCCNCCO)c21` . Return the value. 99

Kindly state the measured Emax obtained for `CCCS(=O)(=O)Nc1ccc(F)c(C(=O)c2c[nH]c3ncc(-c4ccc(Cl)cc4)cc23)c1F` with hypoxia response element-beta-lactamase (HRE–bla). 75

###

- System: hypoxia response element-beta-lactamase (HRE–bla)
- assayMethodText: HRE-bla reporter gene assay in ME-180 cells
- Assay type: cell-based, human
- conditionNotes: Homo sapiens, ME-180; Table S7; confirmatory screen; read-out: HRE–bla confirmatory Efficacy
Catalogue of Emax readings, one per entry.
Report only the number, with the unit % understood.

INSERT INTO measurements (compound, testreadout, displayunit, experimentalvalue) VALUES
  ('CO[C@H]1C[C@@H]2CC[C@@H](C)[C@@](O)(O2)C(=O)C(=O)N2CCCC[C@H]2C(=O)O[C@H]([C@H](C)C[C@@H]2CC[C@@H](OC(=O)C(C)(CO)CO)[C@H](OC)C2)CC(=O)[C@H](C)/C=C(\C)[C@@H](O)[C@@H](OC)C(=O)[C@H](C)C[C@H](C)/C=C/C=C/C=C/1C', 'Emax', '%', 86),
  ('C[C@@H]1C[C@@H]([C@H](O)CC2CC(=O)NC(=O)C2)C(=O)[C@@H](C)C1 [Cycloheximide]', 'Emax', '%', 92);

Which value of Emax has been reported for `CC(=O)Nc1cccc(-n2c(=O)n(C3CC3)c(=O)c3c(Nc4ccc(I)cc4F)n(C)c(=O)c(C)c32)c1` in the records? 53

Item under review: `CC(=O)Oc1ccc(C(c2ccc(OC(C)=O)cc2)c2ccccn2)cc1` . Reported Emax? 93
